target: T1, UL131A expressed from MVA in BHK-21 cells (human cytomegalovirus, UniProt F5HET4 19-129); assay: intracellular FC, MVA-infected BHK-21
T1 construct: whole, on cells
T1 sequence (F5HET4 19-129 limits assumed): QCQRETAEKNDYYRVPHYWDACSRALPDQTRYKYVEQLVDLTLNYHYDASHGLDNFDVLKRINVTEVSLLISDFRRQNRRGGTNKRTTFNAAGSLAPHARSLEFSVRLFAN
parameter: binding result

* 62-11 (antibody, V domains shown, also called NAb 62-11) VH: QVQLQQPGAELVRPGASVKLSCKASGYTFTSYWMNWVKQRPGQGLEWIGMIDPSDSETHYNQMFKDKATLTVDKSSSTAYMQLSSLTSEDSAVYYCSNGYSSFAYWGQGTLVTVSV VL: DVQMTQTTSSLSASLGDRVTISCSASQGISNYLNWYQQKPDGTVKLLIYDTSSLHSGVPSRFSGSGSGTDYSLTISNLEPEDIATYYCQQYSKLPYTFGGGTKLEIK | no binding
* 21F6 (antibody, V domains shown, also called NAb 21F6) VH: QIQLVQSGPELKKPGETVKISCKASGYTFTSYGMNWVKQAPGKGLKWMGWINTYTGEPTYADDFKGRFAFSLETSASTAYLQINNLKNEDTATYFCAREHYYGINPLLGCWGQGTTLTVSS VL: DIQMTQTTSSLSASLGDRVTISCSASQGISNYLNWYQQKPDGTVKLLIYDTSSLHSGVPSRFSGSGSGTDYSLTISNLEPEDIATYYCQQYSKLPYTFGGGTKLEIK | no binding

Cited source for all entries: patent US20180230200A1
